# assay: protein stability index of a GFP-peptide fusion (yeast GPS) (PSI 1-4); higher = more stable; sorted into four equal gates, so the index is relative within each strain
# settings: san1∆
Could you label it Fulfilled if measured protein stability index is 3 or higher, and Not fulfilled otherwise?

MSSNTSSVMSSPRVEKR [YOR098C/NUP1]; Fulfilled
NTQDLLLLLSLFKKITN [YML103C/NUP188]; Not fulfilled
FIKLQKIDIIELQKSLS [FAS1]; Not fulfilled
LPLQPIEIDYTVRVDKA [SNF12]; Not fulfilled
GEVMKELSEEKYIVKAS [RPT4]; Fulfilled

Alright, here's another sequence for you.
Exercise: Determine whether measured protein stability index meets or exceeds 3 for LNLPLQFSLPNGDNSTT [SNF12]
Solution: Not fulfilled

###

Give measured protein stability index for each item. Keep answers brief.
# assay: protein stability index of a GFP-peptide fusion (yeast GPS) (PSI 1-4); higher = more stable; sorted into four equal gates, so the index is relative within each strain
# settings: san1∆

These recorded examples may help you get a feel for the data.
LDDNSTSLEKQINSIKK [YJL041W/NSP1]; 2.98
FAAAPNDTSSGTNAMLP [SNF5]; 3.06
YKRSIVRNYKPLINRLK [SWI1]; 1.65
NFIIWINSIDTTESSDL [GRR1]; 2.61
MTAMRLMLKKLKNSIMS [YML031W/NDC1]; 2.16

Give one value of protein stability index per listed sequence.
1. TGANSIYSVEKKISRLP [UBP6]
2. EFLYSKAGREELERVNV [QCR8]
3. KNEKLILEESLNAIILK [SMC3]
4. MVGLASGNDSMAGKVLI [BRR2]
5. HKHREARGLTATGKKSR [RPL15A]
6. VSEGTRAVTKYSSSTQA [HTB1]
7. FGEWAGMTKSNIYNFSP [BRR2]

Solution:
1. 3.07
2. 3.28
3. 2.18
4. 3.21
5. 3.31
6. 3.16
7. 2.89

Give one value of protein stability index per listed sequence.
1. ELTDKLSALNSEISSLK [SMC1]
2. LRLKPGRKYTTLGKLST [RPL16B]

Solution:
[3.02, 3.03]

###

# assay: protein stability index of a GFP-peptide fusion (yeast GPS) (PSI 1-4); higher = more stable; sorted into four equal gates, so the index is relative within each strain
# settings: doa10∆
Could you label it satisfied if measured protein stability index is 2 or higher, and not satisfied otherwise?

Illustrative cases are given below, each with its answer.
IKENFFERIMILDPQVT [YJL039C/NUP192]; not satisfied
YVRAKFLDYTTDNVSMY [PRP8]; satisfied
FLWPFKLSNPSGGWGVP [RPL7A]; satisfied
DATANATANATANATAN [DSN1]; satisfied
KGAGLSMGTMICGYTRK [PRE2]; not satisfied

Exercise: Determine whether measured protein stability index meets or exceeds 2 for VLSIPPANHLQSDFCLS [YGL100W/SEH1]
Solution: satisfied

Exercise: Determine whether measured protein stability index meets or exceeds 2 for DLNNAVQKRDEVKEQLG [SMC4]
Solution: satisfied

Exercise: Determine whether measured protein stability index meets or exceeds 2 for LLDEEAEQSFDQQSPWL [RPO21]
Solution: satisfied

Exercise: Determine whether measured protein stability index meets or exceeds 2 for QVVVDAITNTGPREDTT [RPS5]
Solution: satisfied
